Assay: Plasma pharmacokinetics in macaques, 1 and 7 days oral administration
Assay type: in vivo
Conditions: female, monkey, plasma, po, 2.67 g/kg/day, macaque plasma; 2.67 g/kg/day p.o.; Day 7
measurement name: half-life (h)
Numbers only, in h.

What the record says about OC[C@H]1O[C@H](O[C@H]2O[C@H](CO)[C@@H](O)[C@H](O)[C@H]2O)[C@H](O)[C@@H](O)[C@@H]1O : half-life is 1.5

----------
Experiment: Plasma and brain pharmacokinetics in rats, 1 and 7 days oral administration
Format: in vivo, Sprague-Dawley rats
Details: both sexes, Sprague-Dawley, po; rat brain; Day 1; 2.67 g/kg p.o.
measurement name: Cmax
Please state the value followed by its unit.

What the record says about OC[C@H]1O[C@H](O[C@H]2O[C@H](CO)[C@@H](O)[C@H](O)[C@H]2O)[C@H](O)[C@@H](O)[C@@H]1O : Cmax is 87 ng/mL

----------
Experiment: Extrapolation from animal data to human plasma exposure
Details: oral, humans, 2.67 g/kg, extrapolated from rat and macaque data, read-out: trehalose plasma Cmax (estimated)
measurement name: Cmax

What the record says about OC[C@H]1O[C@H](O[C@H]2O[C@H](CO)[C@@H](O)[C@H](O)[C@H]2O)[C@H](O)[C@@H](O)[C@@H]1O [trehalose] : Cmax is ~10000 ng/mL
